tgt: T1, GFP-9S library array, motif 4 ND N98R;D124T (synthetic construct, N98R;D124T)
T1 chain: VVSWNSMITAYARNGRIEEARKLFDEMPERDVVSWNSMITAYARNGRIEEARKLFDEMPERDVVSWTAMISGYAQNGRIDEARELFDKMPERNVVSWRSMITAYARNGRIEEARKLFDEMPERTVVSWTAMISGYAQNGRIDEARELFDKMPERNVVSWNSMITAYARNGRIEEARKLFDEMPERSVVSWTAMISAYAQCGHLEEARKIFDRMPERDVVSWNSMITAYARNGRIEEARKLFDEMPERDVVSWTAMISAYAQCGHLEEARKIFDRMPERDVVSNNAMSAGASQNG
assayOverview: high-throughput RNA pulldown from lysate on Ni-NTA beads; HRP: 50 mM Tris pH 8, 150 mM NaCl, 1 mM beta-mercaptoethanol, 50 ug/ml BSA, 3 ug/ml yeast RNA, 0.5% heparin; ITC and FP: Tris pH 8, 200 mM KCl, 5% glycerol; MST: 50 mM Tris pH 8, 200 mM NaCl, 1 mM DTT, BSA, heparin, 0.05% Tween 20
reportedConditions: tags: N-terminal His-eGFP; label: 5' Cy5
assayMetric: Kd (nM)

binder="AUUACACGUGA (ssRNA) [Cy5-rpoA]" recordedmeasurement=74.7
binder="AUUAGACGUGA (ssRNA) [Cy5-rpoA-G]" recordedmeasurement=98.5
